# test_description: Inhibition of DHBV DNA polymerase derived from infected duckling liver assessed as decrease in biotin-11-dUTP incorporation using poly (A)/oligo(dT)15 as template/primer after 1 hr by ELISA
# Design: species or system Duck hepatitis B virus
property: pIC50
In simple prose, pIC50 is minus the logarithm base ten of a concentration in moles per litre.

**Q:** Query (compound): `O=c1[nH]c(SCc2ccc([N+](=O)[O-])cc2)nc(Cc2ccccc2)c1I` ; field requested: pIC50
**A:** 4.37

**Q:** Query (compound): `N#Cc1ccc(CSc2nc(Cn3nnc4ccccc43)c(I)c(=O)[nH]2)cc1` ; field requested: pIC50
**A:** 3.89

**Q:** Query (compound): `O=c1[nH]c(SCc2ccc([N+](=O)[O-])cc2)nc(Cn2nnc3ccccc32)c1I` ; field requested: pIC50
**A:** 3.98

**Q:** Query (compound): `COC(=O)c1ccc(CSc2nc(Cc3cc(C)cc(C)c3)c(I)c(=O)[nH]2)cc1` ; field requested: pIC50
**A:** 4.41

**Q:** Query (compound): `Cc1cc(C)cc(Cc2nc(SCCOc3ccc([N+](=O)[O-])cc3)[nH]c(=O)c2I)c1` ; field requested: pIC50
**A:** 4.25

**Q:** Query (compound): `Cc1cc(C)cc(Cc2nc(SCc3ccc([N+](=O)[O-])cc3)[nH]c(=O)c2I)c1` ; field requested: pIC50
**A:** 4.48

**Q:** Query (compound): `O=c1[nH]c(SCc2ccc([N+](=O)[O-])cc2)nc(Cc2cc(F)cc(F)c2)c1I` ; field requested: pIC50
**A:** 4.53

**Q:** Query (compound): `Cc1cc(C)cc(Cc2nc(SCCc3ccc([N+](=O)[O-])cc3)[nH]c(=O)c2I)c1` ; field requested: pIC50
**A:** 4.14

**Q:** Query (compound): `N#Cc1ccc(CSc2nc(CN3CCc4ccccc4C3)c(I)c(=O)[nH]2)cc1` ; field requested: pIC50
**A:** 4.22

**Q:** Query (compound): `CC(=O)c1ccc(CSc2nc(Cc3cc(C)cc(C)c3)c(I)c(=O)[nH]2)cc1` ; field requested: pIC50
**A:** 4.37

**Q:** Query (compound): `Cc1cc(C)cc(Cc2nc(SCc3ccc(C#N)cc3)[nH]c(=O)c2I)c1` ; field requested: pIC50
**A:** 4.45

**Q:** Query (compound): `O=C(O)P(=O)(O)O` ; field requested: pIC50
**A:** 5.18
